Experiment: HepG2 liver cancer cell viability effects, profiling panel, resazurin fluorescence, 24 h, PK04 Diversity Set (AID 1172); also: test concentration not given here
Details: higher = more signal
Reported Endpoint: z-score
Give bare numbers.

Compound	z-score
COC(=O)[C@H](C)NC(=O)CCC1CC(OC(=O)NCc2ccc3c(c2)OCO3)CC2(CCCC(COC(=O)NCC(c3ccccc3)c3ccccc3)O2)O1 (some centres not stated)	0.0245
CCOC(=O)[C@H](CC(C)C)NC(=O)CCC1CC(OC(=O)NCCc2ccc(F)cc2)CC2(CCCC(COC(=O)NCC(c3ccccc3)c3ccccc3)O2)O1 (some centres not stated)	0.184
CO[C@H]1COC(=O)[C@@H]2CCCN2C(=O)CC=C[C@@H](C)[C@H](OC)COC(=O)[C@@H](OCc2ccccc2)C=C[C@@H]1C	-0.416
CCOC(=O)[C@H](Cc1ccccc1)NC(=O)CCC1CC(OC(=O)NCc2cccc3ccccc23)CC2(CCCC(COC(=O)NCCC(C)C)O2)O1 (some centres not stated)	1.15
CON=Cc1ccc(C(=O)N2[C@H](c3ccc(C)cc3)[C@@H](C)CC[C@H]2C(=O)OC)cc1	0.259
COC(=O)CC=C[C@@H](C)[C@@H](C=NO[C@@H](C)c1cn([C@H](CO)Cc2ccccc2)nn1)OC	-0.849

Next:
Return reported z-score. Input compound: COc1ccc(O[C@H]2C=C[C@@H](c3ccccc3)O[C@@H]2CON=C(C)C)cc1
0.163

---

Assay: basal RPMI8226 viability, no added stimulus, profiling panel, cell-based, calcein-AM fluorescence, 48 h, PK04 Diversity Set (AID 1166);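 also: cells grown under basal conditions without added stimulus; test concentration not given here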
Conditions: RPMI8226 myeloma viability, higher = more signal
Reported Endpoint: z-score
Give bare numbers.

Answered examples (5):
Compound	z-score
CO[C@H]1COC(=O)CCC[C@@H](C)[C@H](OC)COC(=O)[C@@H](C)NC(=O)CC=C[C@@H]1C	-1.04
Cc1ccc(S(=O)(=O)NC(CCc2ccccc2)CC(=O)C(C)(C)C)cc1 (centres undefined)	-0.156
CCOC(=O)[C@H](CC(C)C)NC(=O)CCC1CC(OC(=O)NCCc2ccc(F)cc2)CC2(CCCC(COC(=O)NCCC(C)C)O2)O1 (some centres undefined)	-0.479
CO[C@@H]1COC(=O)CC=C[C@@H](C)[C@H](OC)COC(=O)[C@@H](C)COC(=O)CC=C[C@H]1C	-0.802
CC(C)CON=C1C[C@@H](O)[C@@H](O)[C@@H]2[C@@H]3C(=O)N(c4cccc(Oc5ccccc5)c4)C(=O)[C@@H]3CC[C@@H]12	0.0135

Could I get z-score for every one of these entries?
1. CC(C)[C@@H](OCc1ccccc1)[C@H](C)C=NOC[C@@H](O)COCc1ccco1
2. CCOC(=O)CCN1C(=O)[C@H]2[C@H]3[C@H](O)[C@H](O)CC(=NNC(=O)OCc4ccccc4)[C@@H]3CC[C@H]2C1=O
3. CC(C)=CCCC(C)=CCON=C1C[C@@H](O)[C@@H](O)[C@@H]2[C@@H]3C(=O)N(c4cccc(Oc5ccccc5)c4)C(=O)[C@@H]3CC[C@@H]12
4. CON=C1[C@H]2CCn3c(=O)n(-c4ccccc4)c(=O)n3[C@H]2[C@H](O)[C@@H]2O[C@H]12

[-1.09, -0.359, -3.96, 0.483]
